- SUBJECT_OF_TEST: Beta-adrenergic receptor kinase 1 (Homo sapiens) (UniProt P25098)
- Sequence (P25098 whole entry, looked up): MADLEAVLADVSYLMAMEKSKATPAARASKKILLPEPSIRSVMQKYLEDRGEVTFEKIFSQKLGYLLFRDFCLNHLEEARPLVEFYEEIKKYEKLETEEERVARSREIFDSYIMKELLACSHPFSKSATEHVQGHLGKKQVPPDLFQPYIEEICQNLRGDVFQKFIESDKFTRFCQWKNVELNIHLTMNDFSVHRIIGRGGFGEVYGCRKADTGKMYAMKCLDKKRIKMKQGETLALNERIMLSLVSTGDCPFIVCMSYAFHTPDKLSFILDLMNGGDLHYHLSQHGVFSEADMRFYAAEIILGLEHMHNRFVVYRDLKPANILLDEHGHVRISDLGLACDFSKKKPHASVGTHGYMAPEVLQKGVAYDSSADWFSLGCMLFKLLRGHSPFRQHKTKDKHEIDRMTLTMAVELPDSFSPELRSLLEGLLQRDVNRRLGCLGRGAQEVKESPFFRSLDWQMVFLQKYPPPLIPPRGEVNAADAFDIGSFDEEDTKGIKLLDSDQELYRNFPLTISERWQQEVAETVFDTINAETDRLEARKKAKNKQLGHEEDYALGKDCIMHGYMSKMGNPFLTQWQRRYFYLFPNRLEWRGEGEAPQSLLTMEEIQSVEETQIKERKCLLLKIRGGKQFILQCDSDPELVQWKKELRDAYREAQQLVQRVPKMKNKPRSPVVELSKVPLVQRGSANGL
- PROTOCOL_NOTES: GRK2 binders displacing RNA aptamer, biochemical, validation, human GRK2, bead flow cytometry (AID 488806)
- CONDITION_PARAMETERS: bead-bound GRK2, FAM-aptamer displacement, at 10 µM, stronger effect = higher value
Below, each of the molecules is paired with its reported aptamer binding inhibition value.
METRIC: aptamer binding inhibition (%)

[[record]]
molecule = "OCCN1CCN(CCCN2c3ccccc3Sc3ccc(C(F)(F)F)cc32)CC1"
subject_of_test = "Beta-adrenergic receptor kinase 1 (Homo sapiens) (UniProt P25098)"
value_observed = -4

[[record]]
molecule = "Cc1ccc(S(=O)(=O)NC(C(=O)Oc2cc3oc(=O)cc(C)c3cc2Cl)C(C)C)cc1 (centres undefined)"
subject_of_test = "Beta-adrenergic receptor kinase 1 (Homo sapiens) (UniProt P25098)"
value_observed = 3

[[record]]
molecule = "CCOC(=O)C1CCCN(Cc2nc(Cc3cccc(F)c3)no2)C1 (centres undefined)"
subject_of_test = "Beta-adrenergic receptor kinase 1 (Homo sapiens) (UniProt P25098)"
value_observed = -1

[[record]]
molecule = "Cc1ccc2[nH]c(=O)c(Cc3ccccc3)c(O)c2c1"
subject_of_test = "Beta-adrenergic receptor kinase 1 (Homo sapiens) (UniProt P25098)"
value_observed = 0

[[record]]
molecule = "Cc1ccc(C2CC(=O)C(C=NCCN3CCN(C(=S)Nc4ccccc4)CC3)=C(O)C2)cc1 (centres undefined)"
subject_of_test = "Beta-adrenergic receptor kinase 1 (Homo sapiens) (UniProt P25098)"
value_observed = 5

[[record]]
molecule = "CC[C@]1(O)CC2CN(CCc3c([nH]c4ccccc34)[C@@](C(=O)OC)(c3cc4c(cc3OC)N(C=O)[C@H]3[C@@](O)(C(=O)OC)[C@H](OC(C)=O)[C@]5(CC)C=CCN6CC[C@]43[C@@H]65)C2)C1 (some centres undefined)"
subject_of_test = "Beta-adrenergic receptor kinase 1 (Homo sapiens) (UniProt P25098)"
value_observed = 3

[[record]]
molecule = "CCOC(=O)C(NC(C)=O)C(O)c1ccc([N+](=O)[O-])cc1 (centres undefined)"
subject_of_test = "Beta-adrenergic receptor kinase 1 (Homo sapiens) (UniProt P25098)"
value_observed = 0

[[record]]
molecule = "CSCCC(NC(=O)OC(C)(C)C)C(=O)Oc1ccc2c(=O)c(-c3ccc4c(c3)OCCO4)coc2c1 (centres undefined)"
subject_of_test = "Beta-adrenergic receptor kinase 1 (Homo sapiens) (UniProt P25098)"
value_observed = 2

[[record]]
molecule = "CCN(CC)CCOC(=O)C(c1ccccc1)c1ccccc1"
subject_of_test = "Beta-adrenergic receptor kinase 1 (Homo sapiens) (UniProt P25098)"
value_observed = 3


* * *

Reported GFP response, % of DMSO values follow for various compounds
- PROTOCOL_NOTES: TOR pathway CIT2 reporter hit retest – S. cerevisiae, GFP fusion, cherry picks, mother/daughter gates, confirmation (AID 2274)
- CONDITION_PARAMETERS: S. cerevisiae CIT2-GFP strain, flow cytometry, 3 h; measured here: daughter cell gate; at 10 µM; stronger effect = higher value
METRIC: GFP response, % of DMSO (%)

[[record]]
smiles_record = "O=[N+]([O-])c1ccc(O)c2ncccc12"
metric = "GFP response, % of DMSO"
value_observed = 121

[[record]]
smiles_record = "COCCN1C(=O)/C(=C/c2ccc(N3CCCC3)cc2C)SC1=S"
metric = "GFP response, % of DMSO"
value_observed = 112

[[record]]
smiles_record = "N=c1nc(N2CCCCC2)cc(N)n1O"
metric = "GFP response, % of DMSO"
value_observed = 103

[[record]]
smiles_record = "O=C(O)CCNC(=O)c1ccccc1"
metric = "GFP response, % of DMSO"
value_observed = 98.3

[[record]]
smiles_record = "CN(C)CCCN1c2ccccc2Sc2ccc(Cl)cc21"
metric = "GFP response, % of DMSO"
value_observed = 103

[[record]]
smiles_record = "O=c1cnn([C@@H]2O[C@H](CO)[C@@H](O)[C@H]2O)c(=O)[nH]1"
metric = "GFP response, % of DMSO"
value_observed = 77.9

